Consider the following pKi data for Caspase-1 (Homo sapiens, UniProt P29466), collected from several reports.
pKi: −log10 of the molar value.

| compound | target.desc | comparison.symbol | pKi |
| --- | --- | --- | --- |
| O=C[C@H](CC(=O)O)NC(=O)[C@@H]1CCCN2C(=O)CC[C@H](NC(=O)c3ccc(OCC(=O)O)cc3)C(=O)N12 | Caspase-1 (Homo sapiens, UniProt P29466) | = | 9.00 |
| O=C1Nc2ccc(S(=O)(=O)N3CCC[C@H]3COc3ccccc3)cc2C1=O | Caspase-1 (Homo sapiens, UniProt P29466) | = | 4.77 |
| O=CC(CC(=O)O)NC(=O)Cn1c(Cc2ccccc2)ccc(NC(=O)CCc2ccccc2)c1=O (single isomer, unassigned) | Caspase-1 (Homo sapiens, UniProt P29466) | = | 6.82 |
| CC(C)[C@H](NC(=O)OCc1ccccc1)C(=O)N[C@@H](C)C(=O)N[C@@H](CC(=O)O)C(=O)CON1C(=O)Cc2ccccc21 | Caspase-1 (Homo sapiens, UniProt P29466) | = | 8.70 |
| O=C[C@H](CC(=O)O)NC(=O)[C@@H]1CCCN2C(=O)CC[C@H](NC(=O)c3nccc4ccccc34)C(=O)N12 | Caspase-1 (Homo sapiens, UniProt P29466) | = | 9.22 |
| C[C@H](NC(=O)[C@H](CCC(=O)O)NC(=O)OCc1ccccc1)C(=O)NC(CC(=O)O)C(=O)CNS(=O)(=O)CCc1ccccc1 (stereo partly specified) | Caspase-1 (Homo sapiens, UniProt P29466) | = | 7.62 |
| O=C[C@H](CC(=O)O)NC(=O)CCCCNC(=O)c1ccc(Nc2cnc3ccccc3n2)cc1 | Caspase-1 (Homo sapiens, UniProt P29466) | = | 5.55 |
| O=C[C@H](CC(=O)O)NC(=O)CCCNC(=O)c1ccc(Nc2cnc3ccccc3n2)cc1 | Caspase-1 (Homo sapiens, UniProt P29466) | = | 5.28 |
| CC(C)[C@H](NC(=O)CCc1ccccc1)C(=O)N[C@@H](C)C(=O)NC(CC(=O)O)C(=O)COC(=O)NCc1ccccc1 (stereo partly specified) | Caspase-1 (Homo sapiens, UniProt P29466) | = | 6.92 |
| CC(=O)N(C)[C@@H](Cc1ccc(O)cc1)C(=O)N[C@H](C(=O)N[C@@H](C)C(=O)N[C@H](C=O)CC(=O)O)C(C)C | Caspase-1 (Homo sapiens, UniProt P29466) | = | 6.92 |
| O=C[C@H](CC(=O)O)NC(=O)c1ccc(CNC(=O)c2ccc(Nc3cnc4ccccc4n3)cc2)nc1 | Caspase-1 (Homo sapiens, UniProt P29466) | = | 8.30 |
| O=C(O)C[C@H](NC(=O)OCc1ccccc1)C(=O)CON1C(=O)Cc2ccccc21 | Caspase-1 (Homo sapiens, UniProt P29466) | = | 5.17 |
| Cc1ccc2nc(Nc3ccc(C(=O)NCCCCC(C(=O)N[C@H](C=O)CC(=O)O)c4cccs4)cc3)cnc2c1 (stereo partly specified) | Caspase-1 (Homo sapiens, UniProt P29466) | = | 8.30 |
| O=C(CN1C(=O)[C@@H](NC(=O)c2ccccc2)CN(C(=O)CCc2ccccc2)c2ccccc21)N[C@H]1CC(=O)OC1O (stereo partly specified) | Caspase-1 (Homo sapiens, UniProt P29466) | = | 7.05 |
| CC(=O)N[C@@H](Cc1ccc(O)cc1)C(=O)N[C@H](C(=O)N[C@@H](C)C(=O)N[C@H](/C=N\NC(N)=O)CC(=O)O)C(C)C | Caspase-1 (Homo sapiens, UniProt P29466) | = | 6.30 |
| O=C[C@H](CC(=O)O)NC(=O)Cn1c(-c2ccccc2)ccc(NC(=O)CCc2ccccc2)c1=O | Caspase-1 (Homo sapiens, UniProt P29466) | = | 6.05 |
| CC(C)[C@H](NC(=O)CCc1ccccc1)C(=O)N[C@@H](C)C(=O)NC(CC(=O)O)C(=O)COC(=O)CCc1ccccc1 (stereo partly specified) | Caspase-1 (Homo sapiens, UniProt P29466) | = | 8.57 |
| CC(C)[C@H](CC(=O)NCCn1c(-c2cccnc2)nc2ccccc21)C(=O)N[C@H](C=O)CC(=O)O | Caspase-1 (Homo sapiens, UniProt P29466) | = | 8.41 |
| O=C(O)C[C@H](NC(=O)OCc1ccccc1)C(=O)CON1C(=O)C[C@@H]2CCCC[C@H]21 | Caspase-1 (Homo sapiens, UniProt P29466) | = | 4.76 |
| O=C1C(=O)N(Cc2ccccc2)c2ccc(S(=O)(=O)N3CCC[C@H]3COc3ccccc3)cc21 | Caspase-1 (Homo sapiens, UniProt P29466) | < | 5.30 |
| CC(C)[C@H](NC(=O)CCc1ccccc1)C(=O)N[C@@H](C)C(=O)NC(CC(=O)O)C(=O)CS(=O)(=O)CCCc1ccccc1 (stereo partly specified) | Caspase-1 (Homo sapiens, UniProt P29466) | = | 6.95 |
| O=C(O)C[C@H](NC(=O)OCc1ccccc1)C(=O)COC(=O)CC(c1ccccc1)c1ccccc1 | Caspase-1 (Homo sapiens, UniProt P29466) | = | 6.10 |
| O=C[C@H](CC(=O)O)NC(=O)CCCCCNC(=O)c1ccc(Oc2cnc3ccccc3n2)cc1 | Caspase-1 (Homo sapiens, UniProt P29466) | = | 5.62 |
| CCC(=O)[C@H](CC(=O)O)NC(=O)[C@H](C)NC(=O)[C@@H](NC(=O)[C@H](Cc1ccc(O)cc1)NC(C)=O)C(C)C | Caspase-1 (Homo sapiens, UniProt P29466) | = | 5.40 |
| Cc1ccc2c(c1)ncn2CCNC(=O)C[C@H](C(=O)N[C@H](C=O)CC(=O)O)C(C)C | Caspase-1 (Homo sapiens, UniProt P29466) | = | 8.31 |
| CC(C)[C@H](CC(=O)N1CCCC(Oc2ccccc2)C1)C(=O)N[C@H](C=O)CC(=O)O (stereo partly specified) | Caspase-1 (Homo sapiens, UniProt P29466) | = | 7.67 |
| CC(=O)N[C@@H](Cc1ccc(O)cc1)C(=O)N[C@H](C(=O)N[C@@H](C)C(=O)N[C@@H]1CNC(=O)C1)C(C)C | Caspase-1 (Homo sapiens, UniProt P29466) | < | 4.70 |
| CC(C)[C@H](NC(=O)OCc1ccccc1)C(=O)N[C@@H](C)C(=O)N[C@@H](CC(=O)O)C(=O)COC(=O)C(Cc1ccccc1)Cc1ccccc1 | Caspase-1 (Homo sapiens, UniProt P29466) | = | 8.70 |
| CC(C)[C@H](CC(=O)NCCc1cc(N(C)C)nc2ccccc12)C(=O)N[C@H](C=O)CC(=O)O | Caspase-1 (Homo sapiens, UniProt P29466) | = | 8.52 |
| CC(C)[C@H](NC(=O)OCc1ccccc1)C(=O)N[C@@H](C)C(=O)N[C@@H](CC(=O)O)C(=O)COC(=O)CC(c1ccccc1)c1ccccc1 | Caspase-1 (Homo sapiens, UniProt P29466) | = | 9.00 |
| COC[C@@H]1CCCN1S(=O)(=O)c1ccc2c(c1)C(=O)C(=O)N2 | Caspase-1 (Homo sapiens, UniProt P29466) | < | 4.60 |

###

Consider the following Ki data for Caspase-1 (Homo sapiens), collected from several reports.
Rule: measured Ki below 1000 nM gets Fulfilled; anything equal to or greater than 1000 nM gets Not fulfilled.

| compound | category.label |
| --- | --- |
| O=C(O)C[C@H](NC(=O)OCc1ccccc1)C(=O)CON1Cc2ccccc2C1=O | Not fulfilled |
| CCC(C)c1ccc(Oc2ccccc2S(=O)(=O)N[C@H](C=O)C(=O)O)cc1 (some centres not stated) | Fulfilled |
| O=C[C@@H](NS(=O)(=O)c1ccccc1Oc1ccc(-c2ccc(C(=O)O)cc2)cc1)C(=O)O | Not fulfilled |
| CC(=O)N[C@@H](Cc1ccc(O)cc1)C(=O)N[C@H](C(=O)N(C)[C@@H](C)C(=O)N[C@H](C=O)CC(=O)O)C(C)C | Fulfilled |
| Cc1ccc(CC(=O)OCC(=O)[C@H](CC(=O)O)NC(=O)OCc2ccccc2)c2ccccc12 | Not fulfilled |
| O=C(O)C[C@H](NC(=O)OCc1ccccc1)C(=O)COCCCCCc1ccccc1 | Not fulfilled |
| Cc1cc2ncn(CCNC(=O)C[C@H](C(=O)N[C@H](C=O)CC(=O)O)C(C)C)c2cc1C | Fulfilled |
| CC(=O)NC(C(=O)Nc1ccc(Cc2ccccc2)n(CC(=O)N[C@H](C=O)CC(=O)O)c1=O)c1ccc(O)cc1 (some centres not stated) | Fulfilled |
| O=C(O)C[C@H](NC(=O)OCc1ccccc1)C(=O)COC(=O)CC(c1ccccc1)c1ccccn1 (some centres not stated) | Not fulfilled |
| CC(C)[C@H](CC(=O)NCCn1cnc2ccccc21)C(=O)N[C@H](C=O)CC(=O)O | Fulfilled |
| CC(=O)N[C@@H](Cc1ccc(O)cc1)C(=O)N[C@H](C(=O)N[C@@H](C)C(=O)N[C@@H](CC(=O)O)C(=O)CCCCc1ccccc1)C(C)C | Fulfilled |
| CC(C)[C@H](CC(=O)NCCc1cccc2nc(OCCN(C)C)ccc12)C(=O)N[C@H](C=O)CC(=O)O | Fulfilled |
| CC(C)[C@H](CC(=O)NCCc1ccnc2ccccc12)C(=O)N[C@H](C=O)CC(=O)O | Fulfilled |
| O=C(O)C[C@H](NC(=O)OCc1ccccc1)C(=O)COC(=O)CSc1ccccc1 | Not fulfilled |
| COc1ccc(CCCNC(=O)C[C@H](C(=O)N[C@H](C=O)CC(=O)O)C(C)C)cc1 | Fulfilled |
| CC(=O)N[C@@H](Cc1ccc(O)cc1)C(=O)N[C@H](C(=O)N[C@@H](C)C(=O)N(C)[C@H](C=O)CC(=O)O)C(C)C | Not fulfilled |
